Ref: PubChem BioAssay AID2060505

Listing of recorded viability, T/C by entry.
- Test system: 633275-114-R-J1-PDC complex spheroids, viability;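 note: spheroids exposed to the agents for seven days; percent of DMSO vehicle control viability which is 100%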
- method-summary: Anticancer human tumor 633275-114-R-J1-PDC patient-derived endometrial adenocarcinoma cell line growth inhibition [GQUAD]
- assay-context: second compound 0.0316 µM; first compound 3.16 µM; active compounds read low
quantity-measured: viability, T/C

{"compound": "CCCS(=O)(=O)Nc1ccc(F)c(C(=O)c2c[nH]c3ncc(-c4ccc(Cl)cc4)cc23)c1F + Cc1[nH]c2ccc(F)cc2c1-c1nc2c3cccnc3c3ncccc3c2[nH]1", "result": "86.8%"}
{"compound": "COc1ncnc(C2CC2)c1-c1ncc2cnn(Cc3ccc(-c4nc(C(F)(F)F)cn4C(C)C)cc3)c2n1 + Cc1cnc(CNC(=O)c2c(=O)c3ccc(N4CCCN(C)CC4)nc3n3c2sc2ccccc23)cn1", "result": "56.5%"}
{"compound": "COc1ccc([C@@H](O)c2cc(-c3ncnc4cc(N5CCOCC5)ccc34)c(F)cc2Cl)nn1 + CN(C)c1ccc(Nc2c3ccc(NC(=O)CCN4CCCC4)cc3nc3cc(NC(=O)CCN4CCCC4)ccc23)cc1", "result": "55.7%"}
{"compound": "CCCS(=O)(=O)Nc1ccc(F)c(C(=O)c2c[nH]c3ncc(-c4ccc(Cl)cc4)cc23)c1F + CN(C)c1ccc(Nc2c3ccc(NC(=O)CCN4CCCC4)cc3nc3cc(NC(=O)CCN4CCCC4)ccc23)cc1", "result": "91%"}
{"compound": "COc1cccc2c1C(=O)c1c(O)c3c(c(O)c1C2=O)CC(O)(C(=O)CO)CC3OC1CC(N)C(O)C(C)O1 (stereo not given) + Cc1cnc(CNC(=O)c2c(=O)c3ccc(N4CCCN(C)CC4)nc3n3c2sc2ccccc23)cn1", "result": "1.21%"}
{"compound": "O=c1[nH]cc(F)c(=O)[nH]1 + CN(C)c1ccc(Nc2c3ccc(NC(=O)CCN4CCCC4)cc3nc3cc(NC(=O)CCN4CCCC4)ccc23)cc1", "result": "88.5%"}
{"compound": "COc1cc(C2c3cc4c(cc3C(OC3OC5COC(C)OC5C(O)C3O)C3COC(=O)C23)OCO4)cc(OC)c1O (stereo not given) + CN(C)c1ccc(Nc2c3ccc(NC(=O)CCN4CCCC4)cc3nc3cc(NC(=O)CCN4CCCC4)ccc23)cc1", "result": "33.7%"}
{"compound": "CC(=O)O[C@H]1C(=O)[C@@]2(C)[C@H]([C@H](OC(=O)c3ccccc3)[C@]3(O)C[C@H](OC(=O)[C@H](O)[C@@H](NC(=O)c4ccccc4)c4ccccc4)C(C)=C1C3(C)C)[C@]1(OC(C)=O)CO[C@@H]1C[C@@H]2O + Cc1[nH]c2ccc(F)cc2c1-c1nc2c3cccnc3c3ncccc3c2[nH]1", "result": "20.6%"}
{"compound": "C=CC(=O)N1CCN(c2nc(=O)n(-c3c(C)ccnc3C(C)C)c3nc(-c4c(O)cccc4F)c(F)cc23)C(C)C1 (stereo not given) + Cc1cnc(CNC(=O)c2c(=O)c3ccc(N4CCCN(C)CC4)nc3n3c2sc2ccccc23)cn1", "result": "65.4%"}
{"compound": "CC1COCCN1c1cc(C2(S(C)(=N)=O)CC2)nc(-c2ccnc3[nH]ccc23)n1 (stereo not given) + Cc1[nH]c2ccc(F)cc2c1-c1nc2c3cccnc3c3ncccc3c2[nH]1", "result": "52.6%"}
